# assay: TAR RNA-Tat peptide displacers, HIV-1, primary screen, biochemical, FRET, FAM/TAMRA-labeled Tat (AID 1259389)
# measurement context: HIV-1 TAR RNA, Tat peptide displacement FRET
Hit rate of the full screen: of about 100,000 compounds, about 620 (0.62%) were called active. How the source made its calls: active means z-score of 3 or more in at least 2 runs; inactive means the rest. For the sample, actives were picked, then their nearest neighbours and some compounds at random.
Outcomes: true (active), false (inactive)

1. CCSc1ncc(CO)n1Cc1ccc(F)cc1 ... false
2. CCOc1ccc(-c2nc3c(s2)CN(S(=O)(=O)c2cccc4nsnc24)CC3)cc1 ... false
3. Cc1cc2nc(COC(=O)c3ccccc3Cl)cc(=O)n2o1 ... false
4. CSc1nnc(-c2nonc2NC(C)=O)n1C ... false
5. Cc1cc(NS(=O)(=O)c2ccc3[nH]c(=O)ccc3c2)ccc1Br ... true
6. COC(=O)c1ccc([C@@H]2Nc3ccc(F)cc3[C@@H]3C=CC[C@@H]32)cc1 ... false
7. CCCCN(C)S(=O)(=O)c1cc(-c2cc(C)no2)ccc1CC ... false
8. CCCS(=O)(=O)Nc1cccc(-c2ccc(S(=O)(=O)CC)nn2)c1 ... false
9. COC(=O)c1ccc(C2C(C(=O)OC3CCCC3)=C(C)NC3=C2C(=O)CCC3)cc1 (stereo not drawn) ... false
10. Cc1ccc(-c2nnc3sc(-c4ccccn4)nn23)cc1 ... false
11. CCc1ccc(N2CCn3c2nc2c3c(=O)n(CC(=O)O)c(=O)n2C)cc1 ... false
12. CN1CCN(c2cc(NCCCC(=O)O)c3c4c(onc24)-c2ccccc2C3=O)CC1 ... false
13. CCc1c(CN2CCN(Cc3ccccc3)CC2)csc1C ... false
14. CC(C)OC(=O)c1ccc(N2CC(O)=C(c3nc4ccccc4n3C)C2=N)cc1 ... false
15. CCN(CC)C(=O)Cn1c(-n2nc(C)cc2C)nc2c(c1=O)CCCC2 ... false
16. COc1cc(C2CC(=O)N3CN(c4ccccc4)CSC3=C2C#N)ccc1O (stereo not drawn) ... true
17. CC1=C(C(=O)OCc2ccccc2)C(c2ccc(O)cc2)C2=C(CC(C)(C)CC2=O)N1 (stereo not drawn) ... false
18. CCc1ccc(Nc2nn3c(=O)c4cc5c(cc4nc3s2)OCO5)cc1 ... false
19. Cc1cc(=O)oc2c1c(C)nn2-c1ccc(Cl)cc1 ... true
20. O=C(CSc1nnc2scc(-c3ccccc3)n12)N1CCOCC1 ... false
21. COC(=O)c1ccc2c(=O)n3nc(Nc4ccc(F)c(F)c4)sc3nc2c1 ... false
22. CN1C(C(=O)NCc2ccccc2)=CC(c2ccc3c(c2)OCO3)=NS1(=O)=O ... true
23. COC(=O)c1ccc(N2CSC3=C(C#N)C(c4ccc(Cl)cc4)CC(=O)N3C2)cc1 (stereo not drawn) ... false
